TARGET_OR_TEST_SYSTEM: T1, 4H1831-bA
T1 chain: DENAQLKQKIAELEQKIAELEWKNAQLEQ
TEST_METHOD_NOTES: two-hybrid library CCNG1;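 note: natural log of median RNA to DNA barcode read ratio; higher means stronger binding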
interaction score strictly under -0.6 means 1; at -0.6 or over means 0.

Worked cases, answers included:
BINDER | LABEL_CLASS
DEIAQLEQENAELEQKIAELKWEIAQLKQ [4H170-bA] | 1
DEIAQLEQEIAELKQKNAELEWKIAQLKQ [4H118-bA] | 1
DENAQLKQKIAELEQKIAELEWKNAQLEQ [4H1831-bA] | 0
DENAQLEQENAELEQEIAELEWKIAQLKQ [4H1158-bA] | 0
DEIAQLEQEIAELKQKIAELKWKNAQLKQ [4H112-bA] | 0

Now examine the next entry.
**Query** Decide: interaction score of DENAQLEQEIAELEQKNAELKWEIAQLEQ [4H1081-bA] strictly below -0.6?
**Result** 1
